Target: T1, MSR1 on differentiated THP-1 cells (Homo sapiens, UniProt P21757)
T1 construct: endogenous in cells; host or cells: THP-1 cells differentiated with PMA
T1 sequence (P21757 1-451): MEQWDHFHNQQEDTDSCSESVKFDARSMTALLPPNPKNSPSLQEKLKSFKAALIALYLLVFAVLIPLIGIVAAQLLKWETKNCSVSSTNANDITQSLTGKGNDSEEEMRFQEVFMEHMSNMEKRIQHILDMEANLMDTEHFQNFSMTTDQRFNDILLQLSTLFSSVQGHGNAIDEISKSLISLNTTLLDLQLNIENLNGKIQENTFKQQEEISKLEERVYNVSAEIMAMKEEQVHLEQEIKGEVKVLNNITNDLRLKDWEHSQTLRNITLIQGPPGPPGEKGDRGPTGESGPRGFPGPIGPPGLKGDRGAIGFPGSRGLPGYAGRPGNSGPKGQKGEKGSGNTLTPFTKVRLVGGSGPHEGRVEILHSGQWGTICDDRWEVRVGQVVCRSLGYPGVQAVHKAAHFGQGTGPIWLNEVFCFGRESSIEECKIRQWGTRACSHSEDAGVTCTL
Assay: Binding and internalization of cell-surface expressed MSR1 in differentiated THP-1 cells
Format: cell-based
Details: 10 μg/mL antibody, 37° C.
readout.label: Total Internalized RFU (RFU)
Give bare numbers, in RFU.

For H1H21227N-N297Q: "modified versions of 21227N (H1H21227N-N297Q and H1H21227N-N297D)"; anti-MSR1 antibody "with a N297Q single point mutation" (antibody, V domains shown) VH: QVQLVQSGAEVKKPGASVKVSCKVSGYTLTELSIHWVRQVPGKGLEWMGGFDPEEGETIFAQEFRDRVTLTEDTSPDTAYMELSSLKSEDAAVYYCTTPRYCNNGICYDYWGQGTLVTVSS VL: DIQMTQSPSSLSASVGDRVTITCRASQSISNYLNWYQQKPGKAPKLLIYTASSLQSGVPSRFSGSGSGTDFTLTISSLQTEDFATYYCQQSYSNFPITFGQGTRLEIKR the molecule record lists Total Internalized RFU as 3226161
